Molecular target: T1, Human BCMA (human, UniProt Q02223 1-54, limits assumed)
T1 construct: Soluble analyte in SPR; construct not described; also called huBCMA; B-cell maturation antigen
T1 sequence (looked up): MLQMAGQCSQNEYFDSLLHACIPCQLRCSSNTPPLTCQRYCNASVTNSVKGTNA
Test: SPR, IgG immobilised, 37 C
For each record, write down the corresponding koff.
Please give a number only; it is taken to be in s⁻¹.

Dear colleague, I am looking for the recorded koff of the following binder: L3.PY/L1.PS/H2.QL (antibody, V domains shown, IgG) VH: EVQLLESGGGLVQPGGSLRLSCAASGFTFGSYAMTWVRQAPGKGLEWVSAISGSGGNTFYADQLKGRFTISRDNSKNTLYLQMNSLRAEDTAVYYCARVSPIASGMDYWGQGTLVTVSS VL: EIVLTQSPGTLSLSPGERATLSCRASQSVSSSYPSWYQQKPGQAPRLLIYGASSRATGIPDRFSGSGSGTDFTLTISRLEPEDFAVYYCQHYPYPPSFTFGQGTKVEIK
0.314

Request the reported koff associated with L3.PY/L1.AH/H2.QL (antibody, V domains shown, IgG) VH: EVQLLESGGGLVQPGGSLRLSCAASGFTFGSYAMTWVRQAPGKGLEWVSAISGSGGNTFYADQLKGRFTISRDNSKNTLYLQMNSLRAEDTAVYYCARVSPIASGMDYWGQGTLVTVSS VL: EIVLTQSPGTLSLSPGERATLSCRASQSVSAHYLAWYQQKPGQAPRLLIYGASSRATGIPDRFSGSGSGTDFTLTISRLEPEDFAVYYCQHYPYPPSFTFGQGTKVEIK
0.0016

Given L3.PY/L1.FF/H2.QR (antibody, V domains shown, IgG) VH: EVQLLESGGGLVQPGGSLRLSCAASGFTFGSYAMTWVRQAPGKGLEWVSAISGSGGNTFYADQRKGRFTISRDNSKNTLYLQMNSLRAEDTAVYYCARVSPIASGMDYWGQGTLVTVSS VL: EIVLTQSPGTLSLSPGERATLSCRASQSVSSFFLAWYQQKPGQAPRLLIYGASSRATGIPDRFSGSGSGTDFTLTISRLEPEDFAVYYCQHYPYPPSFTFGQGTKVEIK , state its recorded koff.
0.00177
